Tested on: Bod3-SPM (sphingomyelin) synthesis in HL60 cells
Assay: Sphingolipid metabolism from Bodipy-C3-ceramide: Bod3-SPM in HL60
Assay type: cell-based, Human
Conditions: HL60, 3 hours, 2.5 μM Bodipy-C3-ceramide; read-out: od 3-SPM (IC50 for reduction of Bod3-SPM, cell+medium)
Result type: IC50 (µM)

>>> number("CCCCCCNc1ccc([C@@H](O)[C@@H](CO)NCCCCCC)cc1")
4
>>> number("CCCCCCCCCCCCCCN[C@H](CO)[C@H](O)c1ccc(N)cc1")
4
>>> number("CCCCCCCCCCCC(=O)Nc1ccc([C@@H](O)[C@H](N)CO)cc1")
6

###

Test system: Bod3-GC (glucosylceramide) synthesis in HL60 cells
Test: Sphingolipid metabolism from Bodipy-C3-ceramide: Bod3-GC in HL60
Assay type: cell-based, Human
Details: HL60, 3 hours, 2.5 μM Bodipy-C3-ceramide; read-out: od 3-GC (IC50 for Bod3-GC reduction)
pIC50: −log10 of the molar value.
In this section, each of the molecules is paired with its reported pIC50.
Result type: pIC50

>>> number("CCCCCCNc1ccc([C@@H](O)[C@@H](CO)NCCCCCC)cc1")
5.30
>>> number("CCCCCCCCCCCCCCN[C@H](CO)[C@H](O)c1ccc([N+](=O)[O-])cc1")
4.92
